biological target: Glycine receptor subunit alpha-3 (Homo sapiens, UniProt O75311); test: Binding affinity to human glycine alpha3 receptor expressed in HEK293T cells by SPR assay
Sequence (O75311 whole entry): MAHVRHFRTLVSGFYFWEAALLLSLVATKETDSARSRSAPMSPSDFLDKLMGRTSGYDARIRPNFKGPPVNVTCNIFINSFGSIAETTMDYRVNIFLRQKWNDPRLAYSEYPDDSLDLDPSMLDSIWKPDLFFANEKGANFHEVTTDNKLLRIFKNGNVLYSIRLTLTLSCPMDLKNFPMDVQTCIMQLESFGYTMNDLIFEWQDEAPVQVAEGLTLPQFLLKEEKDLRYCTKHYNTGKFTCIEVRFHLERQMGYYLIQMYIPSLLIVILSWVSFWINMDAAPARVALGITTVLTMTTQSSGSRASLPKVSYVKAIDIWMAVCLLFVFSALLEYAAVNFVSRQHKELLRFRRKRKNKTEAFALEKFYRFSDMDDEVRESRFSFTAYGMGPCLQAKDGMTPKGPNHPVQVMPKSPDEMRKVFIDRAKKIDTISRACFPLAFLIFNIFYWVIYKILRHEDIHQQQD
readout: Kd

Would you please look over these solved cases?
{"compound smiles": "C[C@H]1[C@H]2C(=O)N(C)c3ccncc3[C@H]2CN1S(=O)(=O)c1ccc2c(c1)OCO2", "Kd": "11 nM"}
{"compound smiles": "C[C@@H]1[C@H]2C(=O)N(C)c3ccncc3[C@H]2CN1S(=O)(=O)c1ccc2c(c1)OCO2", "Kd": "> 20000 nM"}
{"compound smiles": "CN1C(=O)[C@H]2CN(S(=O)(=O)c3ccc4occc4c3)C[C@H]2c2cnccc21", "Kd": "> 20000 nM"}

Prompt line: Report Kd for CN1C(=O)[C@@H]2CN(S(=O)(=O)c3ccc4occc4c3)C[C@@H]2c2cnccc21 please.
Response line: 190 nM
